system: NCI-H23 lung; assay: NCI tumour cell line growth inhibition, 48 h
Field: TGI. Provide a value for each of the compounds that follow.

# query: TGI of entry Oc1[nH]c2ccccc2c1N=NC(=S)Nc1ccccc1Cl
33.5 µM

# query: TGI of entry CN(CCNCc1ccccn1)CCNCc1ccccn1
> 100 µM

# query: TGI of entry COc1cc(O)c2c(=O)c(O)c(-c3ccc(O)c(OC)c3)oc2c1
> 100 µM

# query: TGI of entry C[C@]12C[C@@H](OC(=O)[C@]1(C)O)[C@@H]([C@]1(O)CC[C@H]3[C@@H]4C[C@H]5O[C@]56C[C@H]5O[C@H]5C(=O)[C@]6(C)[C@H]4CC[C@@]31C)C2
> 50 µM

# query: TGI of entry COC(=O)c1ccc(S)c(S(=O)(=O)Nc2n[nH]c(N)n2)c1
> 100 µM

# query: TGI of entry CCOC(=O)N1N=C(/C(C)=N/OC)C(C)S1=O (stereo not given)
> 100 µM

# query: TGI of entry Cc1cc(C)nc(NS(=O)(=O)c2ccc(Nc3c4ccccc4nc4c(C(=O)Nc5ccc(S(=O)(=O)N=C(N)N)cc5)cccc34)cc2)n1
> 100 µM

# query: TGI of entry O=[N+]([O-])c1cccc2nc3ccccc3c(NCCCNc3c4ccccc4nc4cccc([N+](=O)[O-])c34)c12
0.248 µM

# query: TGI of entry CC(C)(O)CNc1nc(Nc2ccnc(C(F)(F)F)c2)nc(-c2cccc(C(F)(F)F)n2)n1
42.8 µM

# query: TGI of entry c1ccc2cc(-c3n(Cc4ccc5ccccc5n4)c4ccccc4[n+]3Cc3ccc4ccccc4n3)ccc2c1
1.09 µM

# query: TGI of entry CCOC(=O)c1c(C)n(-c2ccc(Cl)cc2)c2c1cc(O)c1[nH]c3c(c12)CCCC3
> 100 µM

# query: TGI of entry CC1(C)OC(=S)N(c2ccccc2)C12C=Cc1ccccc1O2 (stereo not given)
> 100 µM

# query: TGI of entry CN(C)C(=NCc1ccccc1)NC#N
> 100 µM

# query: TGI of entry C/C(=C\c1cnc(C)s1)[C@@H]1C[C@@H]2O[C@@H]2CCC[C@H](C)[C@H](O)[C@@H](C)C(=O)C(C)(C)[C@@H](O)CC(=O)O1
> 100 µM

# query: TGI of entry Cc1ccc(NC(=O)c2cc(S(=O)(=O)Nc3n[nH]c(=O)[nH]3)c(SSc3cc(Cl)c(C(=O)Nc4ccc(C)cc4)cc3S(=O)(=O)Nc3n[nH]c(=O)[nH]3)cc2Cl)cc1
> 100 µM

# query: TGI of entry ClCCN(CCCl)c1ccc(/C=N/Nc2ccnc3ccccc23)cc1
3.89 µM

# query: TGI of entry Nc1ccc2c(c1)nc1n2C(c2c(F)cccc2F)SC1 (stereo not given)
> 100 µM

# query: TGI of entry CON(C)c1nc(N(C)OC)nc(N(C)OC)n1
> 10 µM

# query: TGI of entry CCOC(=O)c1nc2cc(C(F)(F)F)ccc2nc1Nc1ccc(OC)cc1
> 100 µM

# query: TGI of entry O=[N+]([O-])c1ccc(-c2nc3ccc(Cl)cc3[nH]2)cc1
> 100 µM

# query: TGI of entry Cn1cc(C2=C(c3cccc(OC[C@@H](O)CO)c3)C(=O)NC2=O)c2ccccc21
> 25 µM

# query: TGI of entry Cc1cc(C)nc(SC2=C(Nc3cc(Cl)ccc3O)C(=O)N(Cc3ccccc3)C2=O)n1
> 160 µM

# query: TGI of entry NC(=O)NNC(=O)NC12CC3CC(CC(C3)C1)C2
> 100 µM

# query: TGI of entry C=C(C)C1Cc2c(c3ccccc3n(C)c2=O)O1 (stereo not given)
> 100 µM

# query: TGI of entry C=C1CC(c2ccc(OCCCN3C(=O)c4ccccc4C3=O)cc2)OC1=O (stereo not given)
9.34 µM

# query: TGI of entry CC1=C(O)C2=C(C(=O)C1=O)[C@@H](C)CC[C@@H]2[C@@H](C)C/C=C/C(C)(C)O
> 100 µM

# query: TGI of entry c1ccc2oc(-c3ccc(-c4nc5ccccc5o4)c4c3CC4)nc2c1
> 100 µM

# query: TGI of entry CC1(c2nc3ccccc3[nH]2)CCC(C(=O)O)C(C)(C)O1 (stereo not given)
> 100 µM

# query: TGI of entry Cc1cc(C#Cc2ccc(C(C)(C)C)cc2)ccc1-n1c(/C=C/c2ccc(O)cc2O)nc2ccccc2c1=O
6.8 µM

# query: TGI of entry CC1(c2ccccc2Cl)C(C#N)C(=O)NC(=O)C1C#N (stereo not given)
> 100 µM

# query: TGI of entry CC(C)=CCN1CC(C)C(=O)Nc2ccccc21 (stereo not given)
> 100 µM

# query: TGI of entry Cn1c(-c2ccccc2)cc(-c2cccs2)c1-c1cccs1
> 100 µM

# query: TGI of entry COc1cc2c(c(O)c1OC)C(=O)[C@@H]1CCC(=O)N1C2
> 100 µM

# query: TGI of entry Nc1ncnc2oc(C3OC(COC(=O)c4ccccc4)C(OC(=O)c4ccccc4)C3OC(=O)c3ccccc3)nc12 (stereo not given)
> 100 µM

# query: TGI of entry O=[N+]([O-])c1ccc(C(=S)Nc2ccccc2)o1
12.4 µM

# query: TGI of entry COc1ccc(/C=N/n2c(C)n[nH]c2=O)c(OC)c1
> 100 µM

# query: TGI of entry O=C(O)c1cccc(C(=O)O)c1S(=O)Cc1ccccc1 (stereo not given)
> 100 µM

# query: TGI of entry Oc1c(I)cc(I)c2cccnc12
9.52 µM

# query: TGI of entry Cc1c(-c2ccccc2)[nH]c2cc(Cl)ccc2c1=O
> 100 µM

# query: TGI of entry O=C1CSC2(CC(/C=C/c3cccc([N+](=O)[O-])c3)=NN2c2cccc(S(=O)(=O)O)c2)N1c1nc2ccccc2s1 (stereo not given)
43.4 µM

Origin of the recorded values: PubChem BioAssay (NCI)
